# Test system: Staphylococcus aureus
# Experiment description: Compound was evaluated for anti-methicillin-resistant activity against methicillin-resistant Staphylococcus aureus
# Format: functional
Measured attribute: MIC50 (µg/mL)
Write down the numeric answer in µg/mL and omit the unit.

Answer with the recorded MIC50 for the molecule listed here: `C[C@@H](O)[C@H]1C(=O)N2C(C(=O)[O-])=C(c3cccc(-c4ccc(C[n+]5ccccc5N)cc4)c3)C[C@H]12`
1

Answer with the recorded MIC50 for the molecule listed here: `CN[C@H](CC(C)C)C(=O)N[C@H]1C(=O)N[C@@H](CC(N)=O)C(=O)N[C@H]2C(=O)N[C@H]3C(=O)N[C@H](C(=O)N[C@H](C(=O)O)c4cc(O)cc(O)c4-c4cc3ccc4O)[C@H](O)c3ccc(c(Cl)c3)Oc3cc2cc(c3O[C@@H]2O[C@H](CO)[C@@H](O)[C@H](O)[C@H]2O[C@H]2C[C@](C)(N)[C@H](O)[C@H](C)O2)Oc2ccc(cc2Cl)[C@H]1O`
1

Answer with the recorded MIC50 for the molecule listed here: `COc1cccc(OC)c1C(=O)N[C@@H]1C(=O)N2[C@@H]1SC(C)(C)[C@@H]2C(=O)[O-].[Na+]`
128

Answer with the recorded MIC50 for the molecule listed here: C[C@@H](O)[C@H]1C(=O)N2C(C(=O)O)=C(SCCNC=N)C[C@H]12 [IMIPENEM ANHYDROUS]
4

###

# Target under test: UniProt:P22412
# Sequence (P22412 whole entry): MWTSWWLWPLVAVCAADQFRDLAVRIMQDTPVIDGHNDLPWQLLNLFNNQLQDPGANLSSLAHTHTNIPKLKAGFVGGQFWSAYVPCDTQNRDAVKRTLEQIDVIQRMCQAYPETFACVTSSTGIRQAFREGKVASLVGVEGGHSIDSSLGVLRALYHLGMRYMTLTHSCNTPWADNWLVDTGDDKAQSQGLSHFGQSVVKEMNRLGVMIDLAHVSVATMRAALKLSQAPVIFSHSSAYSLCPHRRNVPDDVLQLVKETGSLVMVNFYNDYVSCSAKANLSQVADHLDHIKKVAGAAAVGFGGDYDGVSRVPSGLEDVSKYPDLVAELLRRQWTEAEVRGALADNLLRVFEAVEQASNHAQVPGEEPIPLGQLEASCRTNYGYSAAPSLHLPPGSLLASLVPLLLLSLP
# Experiment description: DHP-I susceptibility relative to imipenem
# Assay type: functional
Measured attribute: Susceptibility
When you answer, write just the number.

Report Susceptibility under test system UniProt:P22412 for `C[C@@H](O)[C@H]1C(=O)N2C(C(=O)[O-])=C(c3cccc(-c4ccc(C[n+]5ccccc5N)cc4)c3)C[C@H]12` .
0.04

Report Susceptibility under test system UniProt:P22412 for `C[C@@H](O)[C@H]1C(=O)N2C(C(=O)[O-])=C(c3cccc(C[n+]4ccccc4N)c3)C[C@H]12` .
0.11

Report Susceptibility under test system UniProt:P22412 for C[C@@H](O)[C@H]1C(=O)N2C(C(=O)O)=C(SCCNC=N)C[C@H]12 [IMIPENEM ANHYDROUS] .
1

Report Susceptibility under test system UniProt:P22412 for `C[C@@H](O)[C@H]1C(=O)N2C(C(=O)[O-])=C(c3ccc(-c4ccc(C[n+]5ccc(N(C)C)cc5)cc4)cc3)C[C@H]12` .
0.46

###

Field: MIC50. Provide a value for each of the compounds that follow.
# Test system: Staphylococcus sp.
# Experiment description: Compound was evaluated for anti-methicillin-resistant activity against methicillin-resistant coagulase-negative Staphylococci
# Format: functional
Write down the numeric answer in µg/mL and omit the unit.

Answer with the recorded MIC50 for the compound listed here: CN[C@H](CC(C)C)C(=O)N[C@H]1C(=O)N[C@@H](CC(N)=O)C(=O)N[C@H]2C(=O)N[C@H]3C(=O)N[C@H](C(=O)N[C@H](C(=O)O)c4cc(O)cc(O)c4-c4cc3ccc4O)[C@H](O)c3ccc(c(Cl)c3)Oc3cc2cc(c3O[C@@H]2O[C@H](CO)[C@@H](O)[C@H](O)[C@H]2O[C@H]2C[C@](C)(N)[C@H](O)[C@H](C)O2)Oc2ccc(cc2Cl)[C@H]1O [VANCOMYCIN]
4

Answer with the recorded MIC50 for the compound listed here: `C[C@@H](O)[C@H]1C(=O)N2C(C(=O)[O-])=C(c3cccc(-c4ccc(C[n+]5ccccc5N)cc4)c3)C[C@H]12`
2

Answer with the recorded MIC50 for the compound listed here: C[C@@H](O)[C@H]1C(=O)N2C(C(=O)O)=C(SCCNC=N)C[C@H]12 [IMIPENEM ANHYDROUS]
64
